assay: Cytotoxicity against mouse J774 cells assessed as reduction in cell viability after 48 hrs by resazurin dye-based fluorometric analysis
METRIC NAME: CC50 at 48 h (µM)
# number only, unit µM dropped from output

A selection of reference data follows.
# SUBSTANCE SMILES, METRIC NAME, ENDPOINT RESULT
measured = [
    ("COC(=O)[C@]1(C)CCC[C@]2(C)c3cc(OC(C)=O)c(C(C)C)cc3CC[C@@H]12", "CC50 at 48 h", 26.5),
    ("COC(=O)[C@]1(C)CCC[C@]2(C)c3cc(OC(C)=O)c(C(C)C)cc3C(=O)C[C@@H]12", "CC50 at 48 h", 17.8),
    ("COC(=O)[C@]1(C)CCC[C@]2(C)c3cc(O)c(C(C)C)cc3CC[C@@H]12", "CC50 at 48 h", 34.2),
    ("COC(=O)[C@]1(C)CCC[C@]2(C)c3cc(C(C)=O)c(C(C)C)cc3CC[C@@H]12", "CC50 at 48 h", 130),
]

Read the next record carefully.
Would you kindly share the measured CC50 at 48 h for CC(C)c1cc2c(cc1O)[C@@]1(C)CCC[C@@](C)(CO)[C@@H]1CC2=O ?
14.4
